# key: entry, value: Number of rows of photoreceptors average ± SD, (n)
system: retina explants from rd1 mice; test: in vitro organ culture of retina explants under serum-free conditions; type: cell-based, mouse; settings: rd/rd retina explants; glutathione 3 μg/ml, ALA 2 μg/ml, zeaxanthin 0.3 μg/ml, lutein 0.3 μg/ml; control 1.5 ± 0.3

// below: answered compounds
I would be grateful if you could share the reported Number of rows of photoreceptors average ± SD, (n) for `CC1=C[C@H](O)CC(C)(C)[C@H]1/C=C/C(C)=C/C=C/C(C)=C/C=C/C=C(C)/C=C/C=C(C)/C=C/C1=C(C)C[C@@H](O)CC1(C)C` . 2.0 ± 0.8 (n-6) rows

I would be grateful if you could share the reported Number of rows of photoreceptors average ± SD, (n) for `N[C@@H](CCC(=O)N[C@@H](CS)C(=O)NCC(=O)O)C(=O)O` . 2.0 ± 0.9 (n-6) rows

I would be grateful if you could share the reported Number of rows of photoreceptors average ± SD, (n) for O=C(O)CCCCC1CCSS1 (stereo not shown) . 1.8 ± 0.5 (n-6) rows

Next up:
I would be grateful if you could share the reported Number of rows of photoreceptors average ± SD, (n) for `CC1=C(/C=C/C(C)=C/C=C/C(C)=C/C=C/C=C(C)/C=C/C=C(C)/C=C/C2=C(C)C[C@@H](O)CC2(C)C)C(C)(C)C[C@H](O)C1` . 1.9 ± 0.7 (n-6) rows

Measured values drawn from patent US20100233145A1 for this set.
